Here, each record is paired with measured normalized growth data.
Assay: chemical genetic growth profiling, strain panel (AID 1159580);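 also: tested at 20 µM; growth read once vehicle control cultures reached saturation at 30 °C; 1 = growth at the plate median or of vehicle wells; lower values mean less growth of the strain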
Conditions: S. cerevisiae deletion strains, growth OD, locus YGL173C, strain kem1, active compounds read low
In all, about 5,500 compounds went through this assay and about 2,000 (36%) were called active. Inconclusive results (about 18%) are left out. Some of the results follow.
metric: normalized growth

• C=C1C2CC[C@@]3(C)[C@H](c4ccoc4)OC(=O)C[C@]13O[C@H]1CC(=O)C(C)(C)[C@H](C(OC(C)=O)C(=O)OC)[C@@]21C (some centres undefined) = 1.03
• CC[C@@H](C(=O)C(C)[C@@H](O)[C@H](C)CCc1ccc(C)c(O)c1C(=O)O)C1OC(CC)(C2CC[C@](O)(CC)[C@H](C)O2)C[C@@H]1C (some centres undefined) = 1.04
• COc1ccc(C2CNC(=O)C2)cc1OC1CCCC1 (centres undefined) = 1.01
• COc1cc([C@@H]2c3cc4c(cc3[C@@H](O)C3COC(=O)C32)OCO4)cc(OC)c1O (some centres undefined) = 0.992
